Overview of recorded IC50 for various compounds
biological target: UniProt Q9Y243

| compound | IC50 |
| --- | --- |
| Cn1ncc(F)c1-c1ccc2c(c1)CN([C@H](CN)Cc1cccc(F)c1)C2=O | < 500 nM |
| Cn1ncc(Cl)c1-c1ccc2c(n1)CN([C@H](CN)Cc1ccccc1)C2=O | 500 to 5000 nM |
| Cn1ncc(Cl)c1-c1cnc2c(c1)CN([C@H](CN)Cc1cccc(F)c1)C2=O | < 500 nM |

# input For UniProt Q9Y243, provide IC50 of "CC(C)Cn1nccc1-c1ccc2c(c1)CN([C@H](CN)Cc1cc(F)cc(F)c1)C2=O" please.
# output > 5000 nM

# input IC50 of "COCc1cnn(C)c1-c1ccc2c(c1)CN([C@H](CN)Cc1cc(F)cc(F)c1)C2=O" on UniProt Q9Y243?
# output < 500 nM

# input Give recorded IC50 with UniProt Q9Y243 for the following compound: CN(C)CC(c1ccccc1)N1Cc2cc(-c3ccnn3C)ccc2C1=O (centres unmarked)
# output > 5000 nM

----------
Below are compounds with their IC50 as measured on Full length PKA (Homo sapiens, UniProt P17612).

| compound | tgt | IC50 |
| --- | --- | --- |
| Cn1ncc(C#N)c1-c1ccc2c(c1)CN([C@H](CN)Cc1cc(F)cc(F)c1)C2=O [Example 53] | Full length PKA (Homo sapiens, UniProt P17612) | 0.5 to 5 µM |
| CCCOCc1cnn(C)c1-c1ccc2c(c1)CN([C@H](CN)Cc1cccc(F)c1)C2=O [Example 7] | Full length PKA (Homo sapiens, UniProt P17612) | > 5 µM |
| Cn1ncc(Cl)c1-c1ccc2c(c1)CN([C@H](CN)Cc1ccccn1)C2=O [Example 66] | Full length PKA (Homo sapiens, UniProt P17612) | 0.5 to 5 µM |
| CC(C)OCc1cnn(C)c1-c1ccc2c(c1)CN([C@@H](CN)c1ccccc1)C2=O [Example 122] | Full length PKA (Homo sapiens, UniProt P17612) | > 5 µM |
| Cn1ncc(COC2CCC2)c1-c1ccc2c(c1)CN([C@H](CN)Cc1cccc(F)c1)C2=O [Example 8] | Full length PKA (Homo sapiens, UniProt P17612) | 0.5 to 5 µM |
| Cn1cc(-c2cccc(C[C@@H](CN)N3Cc4cc(-c5c(Cl)cnn5C)ccc4C3=O)c2)cn1 [Example 70] | Full length PKA (Homo sapiens, UniProt P17612) | > 5 µM |

# input Please look up its IC50: CN1CCC(NC[C@H](Cc2cccc(F)c2)N2Cc3cc(-c4c(Cl)cnn4C)ccc3C2=O)CC1 [Example 37]
# output > 5 µM

# input Using the record for Cn1ncc(Cl)c1-c1cc2c(cn1)C(=O)N([C@H](CN)Cc1cccc(F)c1)C2 [Example 92] , report its IC50.
# output 0.5 to 5 µM

----------
Listing: IC50 of selected compounds
molecular target: Full length Akt3 (Homo sapiens)
Sequence (Q9Y243 whole entry): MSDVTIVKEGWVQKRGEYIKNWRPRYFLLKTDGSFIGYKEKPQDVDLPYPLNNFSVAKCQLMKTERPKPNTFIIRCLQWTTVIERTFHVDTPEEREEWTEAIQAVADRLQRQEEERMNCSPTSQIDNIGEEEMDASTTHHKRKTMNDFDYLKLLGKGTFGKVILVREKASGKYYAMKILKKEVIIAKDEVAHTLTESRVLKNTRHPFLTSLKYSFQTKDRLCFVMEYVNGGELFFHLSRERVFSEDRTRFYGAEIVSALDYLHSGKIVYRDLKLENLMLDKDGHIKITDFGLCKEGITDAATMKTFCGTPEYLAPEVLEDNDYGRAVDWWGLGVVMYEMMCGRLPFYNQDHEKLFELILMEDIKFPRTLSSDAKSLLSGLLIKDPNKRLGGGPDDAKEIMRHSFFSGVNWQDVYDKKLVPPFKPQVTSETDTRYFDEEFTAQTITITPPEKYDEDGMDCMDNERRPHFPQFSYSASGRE

| compound | IC50 |
| --- | --- |
| Cn1nccc1-c1ccc2c(c1)CN([C@H](CN)Cc1ccsc1)C2=O [Example 81] | < 500 nM |
| CSCc1cnn(C)c1-c1ccc2c(c1)CN([C@H](CN)Cc1cc(F)cc(F)c1)C2=O [Example 49] | < 500 nM |
| Cn1ncc(-c2ccccc2)c1-c1ccc2c(c1)CN([C@H](CN)Cc1cccc(F)c1)C2=O [Example 14] | < 500 nM |

# input Provide value of IC50 for this record tested with Full length Akt3 (Homo sapiens): COc1ccc(-c2cnn(C)c2-c2ccc3c(c2)CN([C@H](CN)Cc2cccc(F)c2)C3=O)cn1 [Example 28]
# output > 5000 nM

# input Form: Entry = Cn1nccc1-c1ccc2c(c1)CN([C@H](CN)Cc1cscn1)C2=O [Example 82] | System = Full length Akt3 (Homo sapiens) | IC50 = ____
# output 500 to 5000 nM

# input Provide value of IC50 for this record tested with Full length Akt3 (Homo sapiens): Cn1nccc1-c1ccc2c(c1)CN([C@H](CN)Cc1cc(F)cc(F)c1)C2=O [Example 40]
# output < 500 nM

# input Any idea what IC50 came out for Cn1nccc1-c1ccc2c(c1)CN([C@H](CN)Cc1ccccc1)C2=O [Example 55] on Full length Akt3 (Homo sapiens)?
# output < 500 nM

# input IC50 of Cn1nccc1-c1cnn(C)c1-c1ccc2c(c1)CN([C@H](CN)Cc1cccc(F)c1)C2=O [Example 17] on Full length Akt3 (Homo sapiens)?
# output > 5000 nM
